Catalogue of PI3Ka IC50 values
- test target: PI3Kα (p110α/p85α) (Homo sapiens (Human))
- assay details: PI3Kα enzymatic test by measuring the consumption of ATP
- Assay type: biochemical
result type: PI3Ka IC50

1) CCN1CC(C)(C)Oc2nc(N3CC4CCC(C3)O4)nc(-c3ccc(NC(=O)NCCCO)cc3)c2C1=O [Example 119]	>10 µM
2) CCN1CC(C)(C)Oc2nc(N3CC4CCC(C3)O4)nc(-c3ccc(NC(=O)Nc4ccc(N5CCN(C(=O)OC)CC5)nc4)c(F)c3)c2C1=O [Example 81]	2.1 µM
3) CC1(C)CN(C2CCOCC2)C(=O)c2c(nc(N3CC4CCC(C3)O4)nc2-c2ccc(NC(=O)Nc3ccon3)c(F)c2)O1 [Example 153]	>10 µM

* * *

- System: U87MG tumour cells
- assay details: Test of in vitro proliferation of U87MG tumour cells
- Type: cell-based
- assay setup: Homo sapiens, U-87 MG, 72 h, U87MG cells, 72 hours; read-out: U87 Cell Proliferation IC50
For each record, check the reported IC50: if it is below 500 nM write satisfied, else write not satisfied.

1. CCN1CC(C)(C)Oc2nc(N3CC4CCC(C3)O4)nc(-c3ccc(NC(=O)Nc4ccc(OC)nc4)c(F)c3)c2C1=O [Example 124]	satisfied
2. CCN1CC(C)(C)Oc2nc(N3CC4CCC(C3)O4)nc(-c3ccc(NC(=O)Nc4ccc(N5CCN(S(C)(=O)=O)CC5)cc4)c(F)c3)c2C1=O [Example 235]	satisfied
3. CCNC(=O)Nc1ccc(-c2nc(N3CC4CCC(C3)O4)nc3c2CN(CC)CC(C)(C)O3)cc1 [Example 113]	not satisfied
4. CCNC(=O)Nc1ccc(-c2nc(N3CCOC[C@@H]3C)nc3c2C(=O)N(CC)CC(C)(C)O3)cc1F [Example 3]	satisfied
5. CCN1CC(C)(C)Oc2nc(N3CC4CCC(C3)O4)nc(-c3ccc(NC(=O)NC)cc3F)c2C1=O [Example 47]	not satisfied
6. CCNC(=O)Nc1ccc(-c2nc(N3CCOC[C@@H]3CC)nc3c2C(=O)N(CC)CC(C)(C)O3)cc1F [Example 151]	not satisfied
7. CCNC(=O)Nc1ccc(-c2nc(N3CCOCC3)nc3c2C(=O)N(CC)CC(C)(C)O3)cc1 [Example 96]	not satisfied

* * *

- test target: mTOR (human recombinant aa mTOR 1360-2549) (Homo sapiens (Human))
- assay details: mTOR enzymatic test by TR-FRET (phosphorylation of GFP-4EBP1)
- Format: biochemical
pIC50: −log10 of the molar value.
result type: pIC50

1) CCNC(=O)Nc1ccc(-c2nc(N3CC4CCC(C3)O4)nc3c2C(=O)N(CCC(=O)O)CC(C)(C)O3)cc1 [Example 7]	7.77
2) CCN1CC(C)(C)Oc2nc(N3CCOC[C@@H]3C)nc(-c3ccc(NC(=O)Nc4ccccn4)cc3)c2C1=O [Example 221]	7.89
3) CCN1CC(C)(C)Oc2nc(N3C4CCC3COC4)nc(-c3ccc(NC(=O)Nc4ccc(N5CC6CCC(C5)O6)nc4)c(F)c3)c2C1=O [Example 259]	7.06
4) CN1CC(C)(C)Oc2nc(N3CC4CCC(C3)O4)nc(-c3ccc(NC(=O)Nc4ccc(N5C6CCC5COC6)nc4)c(F)c3)c2C1=O [Example 245]	7.20
5) CCN1CC(C)(C)Oc2nc(N3CCOC[C@@H]3C)nc(-c3ccc(NC(=O)Nc4ccccn4)c(F)c3)c2C1=O [Example 192]	7.54
6) CCN1CC(C)(C)Oc2nc(N3C4CCC3COC4)nc(-c3ccc(NC(=O)OCCO)cc3)c2C1=O [Example 65]	7.57
7) CCN1CC(C)(C)Oc2nc(N3CC4CCC(C3)O4)nc(-c3ccc(NC(=O)Nc4ccnn4C)cc3)c2C1=O [Example 115]	6.83
8) CCN1CC(C)(C)Oc2nc(N3CCOCC3)nc(-c3ccc(NC(=O)NOC)cc3)c2C1=O [Example 104]	5.83
9) CCN1CC(C)(C)Oc2nc(N3CCOC[C@@H]3C)nc(-c3ccc(NC(=O)Nc4ccn(C)n4)c(F)c3)c2C1=O [Example 166]	7.07
10) CCN1CC(C)(C)Oc2nc(N3CCOC[C@@H]3C)nc(-c3ccc(NC(=O)Nc4ccnc(C)c4)c(F)c3)c2C1=O [Example 199]	7.41
11) CCN1CC(C)(C)Oc2nc(N3CC4CCC(C3)O4)nc(-c3ccc(NC(=O)Nc4ccon4)c(F)c3)c2C1=O [Example 135]	7.96
12) CCN1CC(C)(C)Oc2nc(N3CC4CCC(C3)O4)nc(-c3ccc(NC(=O)NCC4CCOCC4)c(F)c3)c2C1=O [Example 134]	5.50
13) CCN1CC(C)(C)Oc2nc(N3C4CCC3COC4)nc(-c3ccc(NC(=O)Nc4cc(OC)ccn4)cc3)c2C1=O [Example 79]	7.28
14) CCN1CC(C)(C)Oc2nc(N3CC4CCC(C3)O4)nc(-c3ccc(NC(=O)Nc4cnn(C)c4)cc3)c2C1=O [Example 126]	7.89

* * *

Catalogue of log10 of IC50 values
- test target: mTOR (human recombinant aa mTOR 1360-2549) (Homo sapiens (Human), UniProt P42345)
- Sequence (P42345 1360-2549): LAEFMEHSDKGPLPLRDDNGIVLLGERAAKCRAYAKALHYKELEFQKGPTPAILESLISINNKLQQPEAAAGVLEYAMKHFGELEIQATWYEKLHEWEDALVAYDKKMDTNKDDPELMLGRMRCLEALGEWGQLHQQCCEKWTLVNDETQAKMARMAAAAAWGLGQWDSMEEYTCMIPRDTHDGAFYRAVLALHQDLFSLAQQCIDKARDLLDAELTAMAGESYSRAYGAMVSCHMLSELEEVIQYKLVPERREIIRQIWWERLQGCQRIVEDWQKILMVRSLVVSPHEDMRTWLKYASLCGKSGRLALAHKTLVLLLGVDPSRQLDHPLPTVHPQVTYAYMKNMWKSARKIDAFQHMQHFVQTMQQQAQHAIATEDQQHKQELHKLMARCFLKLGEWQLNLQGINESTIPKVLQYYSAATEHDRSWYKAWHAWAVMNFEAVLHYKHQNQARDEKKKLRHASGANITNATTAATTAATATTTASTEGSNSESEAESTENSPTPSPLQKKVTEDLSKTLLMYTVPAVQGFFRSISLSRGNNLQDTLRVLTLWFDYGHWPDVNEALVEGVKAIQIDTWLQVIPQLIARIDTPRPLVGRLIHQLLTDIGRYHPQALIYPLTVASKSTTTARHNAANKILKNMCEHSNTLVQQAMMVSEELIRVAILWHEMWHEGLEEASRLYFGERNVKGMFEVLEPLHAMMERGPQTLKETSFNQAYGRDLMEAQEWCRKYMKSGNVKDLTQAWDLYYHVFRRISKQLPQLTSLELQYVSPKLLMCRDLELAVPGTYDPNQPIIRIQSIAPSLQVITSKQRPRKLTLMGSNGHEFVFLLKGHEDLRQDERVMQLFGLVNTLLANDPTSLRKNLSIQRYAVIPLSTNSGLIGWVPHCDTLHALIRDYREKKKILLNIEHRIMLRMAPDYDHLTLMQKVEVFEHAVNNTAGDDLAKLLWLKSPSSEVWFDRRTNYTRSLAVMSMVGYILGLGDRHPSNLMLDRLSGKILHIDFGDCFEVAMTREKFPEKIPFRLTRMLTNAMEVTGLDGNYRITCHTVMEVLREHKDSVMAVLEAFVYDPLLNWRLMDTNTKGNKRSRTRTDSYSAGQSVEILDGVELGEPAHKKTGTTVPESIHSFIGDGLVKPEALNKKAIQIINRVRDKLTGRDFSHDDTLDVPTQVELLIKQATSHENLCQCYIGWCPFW
- assay details: mTOR enzymatic test by TR-FRET (phosphorylation of GFP-4EBP1)
- Experimental: Model 1: mTOR Enzymatic Test by TR-FRET (Time-resolved Fluorescence Resonance Energy Transfer). The test detects the phosphorylation of the substrate GFP-4EBP1 using a terbium-labelled antibody that is specific for the phospho-Thr46 epitope. Binding of the Tb-antibody to the phosphorylated GFP peptide allows the transfer of energy from Tb, excited at 340 nm, to GFP with an increase in the fluorescence emission of the GFP at 520 nm. […] The mixture is incubated for 30 minutes at room temperature. […]
result type: log10 of IC50 (log10 of the value in nM)

1. CCN1CC(C)(C)Oc2nc(N3CC4CCC(C3)O4)nc(-c3ccc(NC(=O)Nc4ccc(OC)nc4)c(F)c3)c2C1=O [Example 124]	1.30
2. CCN1CC(C)(C)Oc2nc(N3CC4CCC(C3)O4)nc(-c3ccc(NC(=O)Nc4ccc(N5CCOC[C@H]5C)nc4)c(F)c3)c2C1=O	1.32
3. CCN1CC(C)(C)Oc2nc(N3CC4CCC(C3)O4)nc(-c3ccc(NC(=O)NCCCO)cc3)c2C1=O	2.02
4. CCN1CC(C)(C)Oc2nc(N3CCOC[C@@H]3C)nc(-c3ccc(NC(=O)Nc4cnc(N5CCOCC5)cn4)cc3)c2C1=O	1.51
5. CCN1CC(C)(C)Oc2nc(N3CCOC[C@@H]3C)nc(-c3ccc(NC(=O)OCCO)cc3)c2C1=O	1.40
6. COCCN1CC(C)(C)Oc2nc(N3CC4CCC(C3)O4)nc(-c3ccc(NC(=O)Nc4ccc(OC)nc4)cc3)c2C1=O	2.07
7. CCN1CC(C)(C)Oc2nc(N3CC4CCC(C3)O4)nc(-c3ccc(NC(=O)Nc4cccc(OC)n4)c(F)c3)c2C1=O	2.69
8. CCN1CC(C)(C)Oc2nc(N3CC4CCC(C3)O4)nc(-c3ccc(NS(=O)(=O)CC)cc3)c2C1=O	3.80
9. CCN1CC(C)(C)Oc2nc(N3CC4CCC(C3)O4)nc(-c3ccc(NC(=O)NC)cc3F)c2C1=O	1.53
10. CCNC(=O)Nc1ccc(-c2nc(N3CC4CCC(C3)O4)nc3c2C(=O)N(C[C@@H]2CCCN2C(C)=O)CC(C)(C)O3)cc1F	3.03
11. CCN1CC(C)(C)Oc2nc(N3CC4CCC(C3)O4)nc(-c3ccc(NC(=O)Nc4cc(C)nc(C)n4)c(F)c3)c2C1=O	2.65
12. CCN1CC(C)(C)Oc2nc(N3CC4CCC(C3)O4)nc(-c3ccc(Nc4nnc(C)s4)cc3)c2C1=O	1.82
13. CCNC(=O)Nc1ccc(-c2nc(N3CCOCC3)nc3c2C(=O)N(CC)CC(C)(C)O3)cc1	1.86
14. CC[C@H]1COCCN1c1nc2c(c(-c3ccc(NC(=O)NC)c(F)c3)n1)C(=O)N(CC)CC(C)(C)O2	1.85

* * *

- test target: PI3Kα (p110α/p85α) (Homo sapiens (Human), UniProt P42336)
- Sequence (P42336 whole entry): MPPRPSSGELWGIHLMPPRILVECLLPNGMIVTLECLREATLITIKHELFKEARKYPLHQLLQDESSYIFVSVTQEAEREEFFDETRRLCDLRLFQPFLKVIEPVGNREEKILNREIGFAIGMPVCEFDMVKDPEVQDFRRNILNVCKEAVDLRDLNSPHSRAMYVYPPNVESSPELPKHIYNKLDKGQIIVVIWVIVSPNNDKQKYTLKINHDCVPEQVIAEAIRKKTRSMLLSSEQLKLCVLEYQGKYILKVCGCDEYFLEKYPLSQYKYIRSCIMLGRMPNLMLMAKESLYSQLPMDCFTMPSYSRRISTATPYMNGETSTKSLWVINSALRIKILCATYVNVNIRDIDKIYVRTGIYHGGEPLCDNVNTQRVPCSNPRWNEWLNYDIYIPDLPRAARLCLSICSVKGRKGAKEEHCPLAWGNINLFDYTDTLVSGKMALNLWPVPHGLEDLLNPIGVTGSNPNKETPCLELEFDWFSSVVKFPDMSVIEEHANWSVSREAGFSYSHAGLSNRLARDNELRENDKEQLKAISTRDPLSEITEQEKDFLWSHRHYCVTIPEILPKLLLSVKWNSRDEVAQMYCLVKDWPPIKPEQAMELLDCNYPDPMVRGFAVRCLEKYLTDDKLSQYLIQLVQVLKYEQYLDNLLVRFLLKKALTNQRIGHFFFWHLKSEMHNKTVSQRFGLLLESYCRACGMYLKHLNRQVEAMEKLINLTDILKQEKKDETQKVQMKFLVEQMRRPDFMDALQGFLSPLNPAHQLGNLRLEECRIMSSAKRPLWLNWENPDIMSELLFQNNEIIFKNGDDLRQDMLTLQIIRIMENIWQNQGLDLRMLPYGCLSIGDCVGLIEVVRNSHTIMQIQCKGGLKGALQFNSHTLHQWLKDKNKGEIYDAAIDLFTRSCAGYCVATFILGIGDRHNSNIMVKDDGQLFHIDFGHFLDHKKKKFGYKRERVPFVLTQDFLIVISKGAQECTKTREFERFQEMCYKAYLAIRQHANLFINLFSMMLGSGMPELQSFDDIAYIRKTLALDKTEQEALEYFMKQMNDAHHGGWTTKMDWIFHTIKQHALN
- Sequence (P27986 whole entry partner): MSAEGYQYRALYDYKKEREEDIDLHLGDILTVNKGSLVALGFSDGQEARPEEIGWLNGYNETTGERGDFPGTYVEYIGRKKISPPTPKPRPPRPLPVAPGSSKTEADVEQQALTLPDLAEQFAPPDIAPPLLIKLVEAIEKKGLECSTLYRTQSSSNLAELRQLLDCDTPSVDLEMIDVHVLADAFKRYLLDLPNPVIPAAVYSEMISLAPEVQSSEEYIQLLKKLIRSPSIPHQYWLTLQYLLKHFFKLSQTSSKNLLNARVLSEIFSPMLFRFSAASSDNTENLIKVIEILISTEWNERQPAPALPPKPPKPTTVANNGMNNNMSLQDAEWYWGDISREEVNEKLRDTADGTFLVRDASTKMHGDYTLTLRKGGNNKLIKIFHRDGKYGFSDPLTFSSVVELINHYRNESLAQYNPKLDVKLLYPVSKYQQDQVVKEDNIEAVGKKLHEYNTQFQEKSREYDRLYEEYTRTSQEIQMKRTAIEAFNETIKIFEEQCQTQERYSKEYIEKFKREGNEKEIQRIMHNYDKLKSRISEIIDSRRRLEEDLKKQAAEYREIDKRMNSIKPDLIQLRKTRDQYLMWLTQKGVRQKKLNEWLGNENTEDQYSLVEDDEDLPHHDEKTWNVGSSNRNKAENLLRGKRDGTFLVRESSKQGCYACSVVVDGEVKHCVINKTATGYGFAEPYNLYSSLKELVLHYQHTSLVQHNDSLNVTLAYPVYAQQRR
- assay details: PI3Kα enzymatic test by measuring the consumption of ATP
- Type: biochemical
Catalogue of PI3Ka IC50 values
result type: PI3Ka IC50 (µM)

1) CCN1CC(C)(C)Oc2nc(N3[C@@H]4CC[C@H]3COC4)nc(-c3ccc(NC(=O)Nc4ccncc4F)cc3)c2C1=O [Example 75]	5.57
2) CCN1CC(C)(C)Oc2nc(N3CCOC[C@@H]3C)nc(-c3ccc(NC(=O)Nc4ccn(C)n4)c(F)c3)c2C1=O [Example 166]	2.3
3) CCN1CC(C)(C)Oc2nc(N3CC4CCC(C3)O4)nc(-c3ccc(NC(=O)Nc4ccc(F)cc4F)cc3)c2C1=O [Example 19]	6.219
4) CCN1CC(C)(C)Oc2nc(N3CCOC[C@@H]3C)nc(-c3ccc(NC(=O)Nc4ccc(C)nc4)c(F)c3)c2C1=O [Example 161]	0.321
5) CN1CC(C)(C)Oc2nc(N3C4CCC3COC4)nc(-c3ccc(NC(=O)Nc4ccncc4)c(F)c3)c2C1=O [Example 82]	2.24
6) CCN1CC(C)(C)Oc2nc(N3CCOC[C@@H]3C)nc(-c3ccc(NC(=O)NC)cc3F)c2C1=O [Example 11]	2.3
7) CCN1CC(C)(C)Oc2nc(N3CCOC[C@@H]3C)nc(-c3ccc(NC(=O)Nc4ccon4)c(F)c3)c2C1=O [Example 159]	0.561
8) CCN1CC(C)(C)Oc2nc(N3C4CCC3COC4)nc(-c3ccc(NC(=O)Nc4cccnc4)c(F)c3)c2C1=O [Example 50]	2.87
